// reported Percentage of the recovered TE, T6M 5° C. per item
assay_details: Stability of a trace element mix in glass bottle, 6 months at 5° C. or 40° C. (Table V)
experimental_setup: TE mix, pH 2.2, 200 mM malic acid, glass bottle (about 3 ppm DO), heat sterilized, 6 months at 5° C.; vs theoretical concentration
assay_endpoint: Percentage of the recovered TE, T6M 5° C. (%)

INSERT INTO measurements (molecule, units_symbol, measured_number) VALUES
  ('[Se]', '%', 87.2),
  ('[Zn]', '%', 77.8),
  ('[Mo]', '%', 79.9),
  ('I [I, iodide]', '%', 78.6),
  ('F [F, fluoride]', '%', 94),
  ('[Cr]', '%', 77.3),
  ('[Cu]', '%', 81.1);

These entries and their values trace back to patent US12357536B2.
